ASSAY_SYSTEM: human EP3 receptor (Homo sapiens)
Sequence (P43115 1-390): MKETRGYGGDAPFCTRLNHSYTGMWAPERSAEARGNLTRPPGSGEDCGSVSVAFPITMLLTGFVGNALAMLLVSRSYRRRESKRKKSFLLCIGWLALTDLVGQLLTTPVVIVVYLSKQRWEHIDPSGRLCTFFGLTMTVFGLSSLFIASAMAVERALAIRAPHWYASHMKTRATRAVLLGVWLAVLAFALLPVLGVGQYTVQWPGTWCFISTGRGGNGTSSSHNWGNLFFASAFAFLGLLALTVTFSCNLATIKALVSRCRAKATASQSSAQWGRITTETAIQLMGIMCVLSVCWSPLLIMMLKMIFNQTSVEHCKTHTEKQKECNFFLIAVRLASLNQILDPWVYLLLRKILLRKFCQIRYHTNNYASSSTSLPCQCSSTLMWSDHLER
ASSAY_EXPLANATION: Cellular in vitro assay for determining EP3 receptor activity (human EP3 cell line, sulprostone-stimulated calcium luminescence)
TEST_SETTINGS: CHO cells expressing human EP3 and mitochondrial Clytin; antagonist mode, sulprostone at EC50; read-out: EP3 CHO mtCLY ANTAG IC50
MEASURED_ATTRIBUTE: log10 of IC50 (log10 of the value in nM)
All values: base-10 log of IC50 in nM.

# count of solved cases: 5
CC(C)(O)[C@@H](NC(=O)c1nn2cc(-c3ccc(Cl)c(F)c3)[nH]c(=O)c2c1C(F)(F)C(F)(F)F)c1ccc(F)cc1	0.47
O=C(NC(c1cccc(F)c1)C(F)F)c1cc2c(=O)[nH]c(-c3ccc4ccccc4c3)cn2n1 (stereo not shown)	0.11
Cc1ccc(-c2cn3nc(C(=O)N[C@H](CCO)c4ccccc4)cc3c(=O)[nH]2)cc1C	-0.85
O=C(NC(CN1CCOCC1)c1ccc(F)cc1)c1cc2c(=O)[nH]c(-c3ccc4ccccc4c3)cn2n1 (stereo not shown)	0.92
CC(NC(=O)c1cc2c(=O)[nH]c(-c3ccc4ccccc4c3)cn2n1)c1ccc(OCC(F)(F)F)cn1 (stereo not shown)	0.45

## Task API: value(readout= log10 of IC50, system= human EP3 receptor (Homo sapiens), query= `COCc1c(C(=O)NC2(c3ccc(F)cc3)CN(C)C2)nn2cc(-c3ccc4c(c3)OCCO4)[nH]c(=O)c12` )
## Result 0.82

## Task Provide value of log10 of IC50 for this record tested with human EP3 receptor (Homo sapiens): `Cc1ccc(-c2cn3nc(C(=O)NC4(c5ccc(F)cc5)CN(C5CC5)C4)c(C(F)(F)F)c3c(=O)[nH]2)cc1Cl`
## Result 0.18

====

ASSAY_SYSTEM: human EP3 receptor (Homo sapiens)
ASSAY_EXPLANATION: Cellular in vitro assay for determining EP3 receptor activity (human EP3 cell line, sulprostone-stimulated calcium luminescence)
TEST_SETTINGS: CHO cells expressing human EP3 and mitochondrial Clytin; antagonist mode, sulprostone at EC50; read-out: EP3 CHO mtCLY ANTAG IC50
MEASURED_ATTRIBUTE: pIC50
API: returns pIC50 as number; meaning -log10 of concentration in mol/L.

Worked examples, 5 molecules total:
Cc1cc(-c2cn3nc(C(=O)NC(CO)C(F)(F)F)c(C4CC4)c3c(=O)[nH]2)ccc1Cl (single isomer, unassigned) [6-308]	8.59
Cc1ccc(-c2[nH]c(=O)c3c(C4CC4)c(C(=O)N[C@@H](c4ccc(F)cc4)C(C)(C)O)nn3c2F)cc1Cl [6-664]	8.28
O=C(NC1(c2ccc(F)cc2)CN(C2CC2)C1)c1nn2cc(-c3ccc(Cl)c(F)c3)[nH]c(=O)c2c1C1CC1 [6-104]	8.90
Cc1c(C(=O)NC(C)c2cccnc2)nn2c(C)c(-c3ccc4ccccc4c3)[nH]c(=O)c12 (stereo not drawn) [Example 3-73]	8.57
CCn1cc(CNC(=O)c2nn3c(C)c(-c4ccc5ccccc5c4)[nH]c(=O)c3c2C)c(C)n1 [Example 3-14]	8.90

## Task Item Cc1ccc(-c2cn3nc(C(=O)N[C@H](C)C4CC4)c(C4CC4)c3c(=O)[nH]2)cc1Cl [6-283] has what recorded pIC50?
## Result 9.39

## Task Which measured pIC50 value corresponds to CC(C)[C@@H](C)NC(=O)c1nn2cc(-c3ccc4ccccc4c3)[nH]c(=O)c2c1C(F)(F)F [6-512] ?
## Result 9.02

## Task Any idea what pIC50 was measured for Cc1cc(-c2cn3nc(C(=O)NC4(c5ccc(F)cc5)CN(C5CC5)C4)c(C4CC4)c3c(=O)[nH]2)ccc1Cl [6-345] ?
## Result 8.81

## Task Could you share which pIC50 value was measured for O=C(NCC(O)C(F)(F)F)c1nn2cc(-c3ccc4c(c3)OCCO4)[nH]c(=O)c2c1C1CC1 (racemic) [6-465] ?
## Result 8.76

## Task Item under review: CCn1nccc1CNC(=O)c1nn2c(C)c(-c3ccc(C)c(C)c3)[nH]c(=O)c2c1C(F)(F)F [6-13] . Reported pIC50?
## Result 8.03

## Task What measured pIC50 goes with Cc1ccc(-c2cn3nc(C(=O)NCC(C)(N)C(F)(F)F)c(C(F)(F)F)c3c(=O)[nH]2)cc1Cl (racemic) [6-169] ?
## Result 8.39

## Task Any idea what its pIC50 is? The molecule is O=C(NC1(c2ccc(F)cc2)CC1)c1cc2c(=O)[nH]c(-c3ccc4ccccc4c3)cn2n1 [6-18]
## Result 8.76

## Task Item under review: O=C(N[C@@H](c1ccc(F)cc1)C(F)(F)CO)c1nn2cc(-c3cc(Cl)c(Cl)cc3F)[nH]c(=O)c2c1C1CC1 [6-582] . Reported pIC50?
## Result 8.58

## Task Consider the molecule Cc1ccc(-c2cn3nc(C(=O)NCC(O)C(F)(F)F)c(C4CC4)c3c(=O)[nH]2)cc1C (single isomer, unassigned) [6-437] and give its measured pIC50.
## Result 9.11

## Task Reported pIC50, molecule CC[C@@H](C)NC(=O)c1nn2cc(-c3ccc(C)c(Cl)c3)[nH]c(=O)c2c1C [Example 1-149] : ____
## Result 8.63

====

This listing pairs compounds with measured pIC50.
ASSAY_SYSTEM: human EP3 receptor (Homo sapiens, UniProt P43115)
Sequence (P43115 1-390): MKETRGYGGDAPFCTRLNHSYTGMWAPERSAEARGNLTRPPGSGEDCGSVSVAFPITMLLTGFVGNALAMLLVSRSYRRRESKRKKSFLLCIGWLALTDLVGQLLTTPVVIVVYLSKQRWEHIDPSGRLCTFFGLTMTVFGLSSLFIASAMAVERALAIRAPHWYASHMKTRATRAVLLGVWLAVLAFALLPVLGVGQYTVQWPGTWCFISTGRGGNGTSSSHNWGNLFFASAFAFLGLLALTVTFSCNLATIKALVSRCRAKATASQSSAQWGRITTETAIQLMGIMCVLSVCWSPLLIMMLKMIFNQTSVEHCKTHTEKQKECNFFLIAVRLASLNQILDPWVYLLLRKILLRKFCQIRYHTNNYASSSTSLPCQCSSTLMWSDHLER
ASSAY_EXPLANATION: Cellular in vitro assay for determining EP3 receptor activity (human EP3 cell line, sulprostone-stimulated calcium luminescence)
TEST_SETTINGS: CHO cells expressing human EP3 and mitochondrial Clytin; antagonist mode, sulprostone at EC50; read-out: EP3 CHO mtCLY ANTAG IC50
# pIC50 is unitless: minus log10 of the molar concentration; print number only

Cc1[nH]c2ccc(CNC(=O)c3nn4cc(-c5cnc6cccc(C)c6c5)[nH]c(=O)c4c3C(C)C)cc2c1C	8.70
Cc1ccc(-c2cn3nc(C(=O)N[C@@H](C)C(C)(C)C)c(C4CC4)c3c(=O)[nH]2)cc1Cl	8.32

## Task Request body: readout pIC50, system human EP3 receptor (Homo sapiens, UniProt P43115), query `Cc1cc(-c2cn3nc(C(=O)N[C@H](CN4CC(F)C4)c4ccc(F)cc4)c(C(F)(F)F)c3c(=O)[nH]2)ccc1Cl` . Return the value.
## Result 8.49

## Task Please tell me: pIC50 of COc1ccc(C(C)NC(=O)c2nn3cc(-c4cnc5cccc(C)c5c4)[nH]c(=O)c3c2C(C)C)cc1F (stereo not drawn) , system human EP3 receptor (Homo sapiens, UniProt P43115)?
## Result 8.62

## Task State its pIC50 on human EP3 receptor (Homo sapiens, UniProt P43115): CC(C)C(CNC(=O)c1cc2c(=O)[nH]c(-c3ccc4ccccc4c3)cn2n1)n1cc(Cl)cn1 (stereo not drawn)
## Result 8.41

## Task Under human EP3 receptor (Homo sapiens, UniProt P43115): pIC50 value of `Cc1ccc(-c2cn3nc(C(=O)NC4(c5ccc(F)cc5)CN(C)C4)cc3c(=O)[nH]2)cc1Cl` ?
## Result 8.25

## Task Notebook: pull reported pIC50 for human EP3 receptor (Homo sapiens, UniProt P43115), entry `CCC1(NC(=O)c2cc3c(=O)[nH]c(-c4ccc5ccccc5c4)cn3n2)CN(C(=O)OC(C)(C)C)C1`
## Result 8.57

## Task For human EP3 receptor (Homo sapiens, UniProt P43115), provide pIC50 of `CC(C)c1c(C(=O)N[C@@H](C)c2ccc(F)cc2)nn2cc(-c3ccc4ccccc4c3)[nH]c(=O)c12` please.
## Result 8.63

## Task Look up pIC50 with human EP3 receptor (Homo sapiens, UniProt P43115) for this compound: `O=C(N[C@H](CCO)c1ccc(F)cc1)c1nn2cc(-c3ccc(Cl)c(C(F)F)c3)[nH]c(=O)c2c1C1CC1`
## Result 8.96

## Task Item `Cc1cc(-c2cn3nc(C(=O)N[C@H](C)C(C)(C)C)c(C4CC4)c3c(=O)[nH]2)ccc1Cl` with human EP3 receptor (Homo sapiens, UniProt P43115) - pIC50?
## Result 8.49

## Task Form field - read-out: pIC50; system: human EP3 receptor (Homo sapiens, UniProt P43115); submitted item: `Cc1cc(-c2cn3nc(C(=O)N[C@@H](C)C4CC4)c(C(F)(F)F)c3c(=O)[nH]2)ccc1Cl`
## Result 8.87

## Task Provide value of pIC50 for this record tested with human EP3 receptor (Homo sapiens, UniProt P43115): Cc1c(C(=O)NC(C)c2ccc(S(C)(=O)=O)cc2)nn2c(C)c(-c3ccc4ccccc4c3)[nH]c(=O)c12 (stereo not drawn)
## Result 8.49

## Task Reported pIC50 for human EP3 receptor (Homo sapiens, UniProt P43115), given `Cc1ccc(-c2cn3nc(C(=O)N[C@@H](C)CO)c(C4CCC4)c3c(=O)[nH]2)cc1F` ?
## Result 8.43

## Task GET /values?readout=pIC50&system=human EP3 receptor (Homo sapiens, UniProt P43115)&item= `Cc1ccc(-c2cn3nc(C(=O)N[C@@H](c4ccc(F)cc4)[C@@H](O)C(F)(F)F)c(C4CC4)c3c(=O)[nH]2)cc1Cl`
## Result 8.96

## Task Look up pIC50 with human EP3 receptor (Homo sapiens, UniProt P43115) for this compound: `Cc1cc(-c2cn3nc(C(=O)N[C@H](CN4CCOCC4)c4ccc(F)cc4)c(C4CC4)c3c(=O)[nH]2)ccc1Cl`
## Result 8.82
